System: c-Abl (mouse)
Assay: phosphorylation enrichment, bacterial display (enrichment ratio); higher = better substrate or ligand; peptides without Tyr show the background
quantity.name: phosphorylation enrichment

> print(dat)
                      query.sequence  target.entity  value.measured
1  QLCVSYPGGFT [PROS1_Y259_N258S_YF]  c-Abl (mouse)            1.24
2           WCKPPYFSCAV [MMS22L_Y28]  c-Abl (mouse)           0.656
3     HTVVSYAKVRA [CLOCK_Y378_E380K]  c-Abl (mouse)            0.65
4   EQKKYSNAMKK [SCN5A_Y1495_Y1495S]  c-Abl (mouse)           0.469
5      EIPTQYEAMAS [GFAP_Y242_R239P]  c-Abl (mouse)           0.615
6             LCRYGYANTSE [SI_Y1233]  c-Abl (mouse)           0.932
7       HHFAAYFQQGD [GPI_Y351_R347H]  c-Abl (mouse)           0.945

----------
Molecular target: Hck (UniProt P08631)
Sequence (P08631 whole entry, looked up): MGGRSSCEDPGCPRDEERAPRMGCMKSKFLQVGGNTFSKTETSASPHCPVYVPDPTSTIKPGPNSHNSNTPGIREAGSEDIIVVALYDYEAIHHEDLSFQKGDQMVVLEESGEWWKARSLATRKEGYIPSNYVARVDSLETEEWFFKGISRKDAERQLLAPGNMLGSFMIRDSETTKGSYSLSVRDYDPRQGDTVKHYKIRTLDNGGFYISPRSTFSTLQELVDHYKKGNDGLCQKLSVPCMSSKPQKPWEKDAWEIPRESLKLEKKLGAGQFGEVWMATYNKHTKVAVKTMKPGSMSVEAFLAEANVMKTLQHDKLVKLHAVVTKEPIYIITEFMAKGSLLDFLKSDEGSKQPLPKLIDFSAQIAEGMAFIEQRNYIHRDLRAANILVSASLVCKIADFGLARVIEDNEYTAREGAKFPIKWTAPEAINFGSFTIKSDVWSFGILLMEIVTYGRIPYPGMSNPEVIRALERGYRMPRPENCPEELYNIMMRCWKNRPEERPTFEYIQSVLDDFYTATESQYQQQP
Test: phosphorylation enrichment, bacterial display (enrichment ratio); higher = better substrate or ligand; peptides without Tyr show the background
Response field class: enum, chosen by comparing phosphorylation enrichment against class 0 (below 0.5), class 1 (0.5 to below 0.7), class 2 (0.7 or more)

> print(dat)
                          query.sequence      cat
 1             KSVITYSPTTG [ITGB3BP_Y32]  class 0
 2                KLIETYFSKNY [PLP1_Y50]  class 1
 3              EGNERYEGYCV [GRIA3_Y451]  class 1
 4               EPSVPYRGTVF [GLI3_Y104]  class 0
 5             ALAAPYVLYPG [CEFIP_Y1332]  class 2
 6           LYEDRYLLGPS [ASS1_Y87_T91P]  class 2
 7        LLKMMYLMLDN [STAT1_Y203_K201M]  class 1
 8         DFPGIYSGYDD [POLR1C_Y33_N32I]  class 2
 9         CTTIHYYYMCN [TP53_Y234_N235Y]  class 2
10        LPHVIYCRLWC [SMAD2_Y128_R133C]  class 2
11           EGDGVYTLNDE [HP_Y125_N129D]  class 2
12              STEEQYRIRQV [EFHC1_Y115]  class 0
13              HELYVYKCDEN [DOCK3_Y548]  class 2
14  NVADHYRVFKP [ATP6V0D2_Y271_G272R_YF]  class 0
15             PFTRNYFVRAV [CYBA_Y87_YF]  class 1
16           PADRAYSWFQH [NDST1_Y711_YF]  class 0
17         IVVVPYEPPEV [TP53_Y220_S215I]  class 0
18         IGKAGYTDKMV [ENO1_Y236_V240M]  class 0
19         LSDGPYSNSYE [EPOR_Y485_P488S]  class 1
20              CGTPDYIAPEI [PRKCG_Y521]  class 1

----------
Target: SHP2-C SH2;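 also: peptide library displayed on the E. coli surface as eCPX fusions, selected cells deep-sequenced, score is each peptide's frequency after selection divided by its frequency in the input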
Assay: SH2 binding enrichment of the phosphorylated peptide, bacterial display (enrichment ratio); higher = better substrate or ligand; peptides without Tyr show the background
quantity.name: SH2 binding enrichment

> print(dat)
                     query.sequence  value.measured
1  AEFGLYRAMVR [VSX2_Y222_G223R_YF]           0.789
2         QGCSIYKDYYR [PLA2G2D_Y82]           0.813
3          CTNELYMMMRD [FGFR1_Y730]           0.502
4            KLIETYFSKNY [PLP1_Y50]           0.461
5     CTTIHYSYMCN [TP53_Y234_N235S]            6.33
6           DYSLKYATDIP [APC_Y1183]           0.536
7          PVRIAYDRPRG [SUGP2_Y985]           0.764

----------
Molecular target: MERTK (UniProt Q12866)
Sequence (Q12866 whole entry, looked up): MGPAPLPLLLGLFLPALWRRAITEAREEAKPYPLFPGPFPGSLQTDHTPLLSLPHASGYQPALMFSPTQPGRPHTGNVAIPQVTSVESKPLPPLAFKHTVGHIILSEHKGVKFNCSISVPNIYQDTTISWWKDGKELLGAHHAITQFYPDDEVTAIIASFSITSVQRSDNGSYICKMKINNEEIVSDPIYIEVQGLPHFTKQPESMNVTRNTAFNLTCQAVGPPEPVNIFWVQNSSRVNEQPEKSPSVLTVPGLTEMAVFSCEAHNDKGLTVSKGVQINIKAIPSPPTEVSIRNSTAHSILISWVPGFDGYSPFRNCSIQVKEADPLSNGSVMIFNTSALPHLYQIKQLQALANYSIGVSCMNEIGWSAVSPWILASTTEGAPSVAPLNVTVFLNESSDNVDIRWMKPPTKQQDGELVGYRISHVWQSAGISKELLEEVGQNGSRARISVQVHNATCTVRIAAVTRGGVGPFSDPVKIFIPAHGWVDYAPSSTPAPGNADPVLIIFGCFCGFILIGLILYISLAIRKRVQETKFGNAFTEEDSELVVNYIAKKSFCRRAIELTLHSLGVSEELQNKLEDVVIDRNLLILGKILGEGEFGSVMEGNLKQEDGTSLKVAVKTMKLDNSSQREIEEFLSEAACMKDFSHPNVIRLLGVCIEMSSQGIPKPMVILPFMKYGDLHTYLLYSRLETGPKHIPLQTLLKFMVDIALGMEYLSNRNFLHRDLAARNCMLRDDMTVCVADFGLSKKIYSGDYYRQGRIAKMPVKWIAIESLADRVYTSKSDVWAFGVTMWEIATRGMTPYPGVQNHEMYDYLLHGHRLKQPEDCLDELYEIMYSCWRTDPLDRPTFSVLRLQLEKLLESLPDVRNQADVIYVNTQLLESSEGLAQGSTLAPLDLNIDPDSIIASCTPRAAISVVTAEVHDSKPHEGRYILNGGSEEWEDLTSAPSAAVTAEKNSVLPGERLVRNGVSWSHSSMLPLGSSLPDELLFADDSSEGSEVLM
Assay: phosphorylation enrichment, bacterial display (enrichment ratio); higher = better substrate or ligand; peptides without Tyr show the background
Measured phosphorylation enrichment, listed per entry.
quantity.name: phosphorylation enrichment

> print(dat)
                          query.sequence  value.measured
 1              STEEQYRIRQV [EFHC1_Y115]           0.345
 2                 TTPGPYRSIYF [MPG_Y71]           0.422
 3        KPLMPSMRYSR [SMARCE1_Y73_Y73S]           0.467
 4      LGSNGCKKLLK [SEPSECS_Y334_Y334C]           0.866
 5             MKKMHYVDPDH [ST3GAL5_Y99]           0.332
 6         TNEYEYDELIV [TGM1_Y136_D132N]           0.525
 7             HNLYSYPTKHE [MYO3A_Y1396]            13.6
 8              ADRSCYDLSCH [GARS1_Y467]           0.457
 9                PHMQTYEVDLN [SDHB_Y61]            0.51
10     IFSGIYFKPES [L2HGDH_Y102_H98Y_YF]               6
11     PFFASYPPSPD [GDAP2_Y491_T489A_YF]           0.769
12      EQPNPYMVLDI [ROCK2_Y1197_S1194P]            2.06
13          YLQEIHNSNNQ [FGG_Y140_Y140H]           0.484
14              SLIERYEPSET [PLCD1_Y258]           0.727
15         ANLAKYGNPNE [BCHE_Y505_F502L]           0.379
16         SGADSYEMEED [EGFR_Y316_C311S]           0.722
17               RPASVYTKRCS [CPT2_Y508]           0.442
18              LASSEYPVRRR [GALK1_Y236]           0.526
19               LTQRTYMSENA [GPAA1_Y49]            0.47
20        QEIATYRPLLE [KRT14_Y415_R417P]           0.504
21       PANMVYSTVEI [SLAMF7_Y304_T302M]            8.74
22       EGLKVYINGTL [ADGRD1_Y183_V184I]           0.337
23               HSDYQYSQRSQ [PKP2_Y168]           0.501
24       FFWDGYMPRQF [GSS_Y270_R267W_YF]           0.398
25  NVADHYRVFKP [ATP6V0D2_Y271_G272R_YF]           0.644
26      EQKKYSNAMKK [SCN5A_Y1495_Y1495S]            0.29
27                AEQDWYHGAIP [FER_Y461]           0.443
28              RLAQRYLIWEC [SCN5A_Y694]           0.609
29               AVHPGYGFLSE [PCCA_Y143]           0.527
30            ILLAGYLVMVI [SLC28A3_Y113]           0.498
31       DNLSNYVFQGQ [GRIN2A_Y978_N976S]           0.618
32               ASPALYRLDLD [TRIL_Y352]           0.484
33          QEGPEYWDRET [HLA-A_Y83_Q86R]           0.924
34      MTKEQYIKMNQ [ARFGEF2_Y797_R802Q]           0.381
35         KLFFHYDPKLC [INSR_Y457_N458D]           0.382
36              DGTGHYLCNAC [GATA5_Y208]           0.398
37         EPSVPYRGMVF [GLI3_Y104_T107M]           0.432
38        WRPFGYPCRRR [BCS1L_Y181_R183C]           0.509
39               KKHFSYAWPFY [BRDT_Y291]            1.22
40       IITVHYVLEES [RYR2_Y4559_A4556T]           0.498
41               EADRKYEEVAR [TPM3_Y163]           0.598
42      LWPIWYSCHRP [MRGPRX1_Y130_R131S]           0.687
43         NFFDTYIKTCL [IQGAP2_Y1445_YF]           0.496
44      QTENKYVSVSG [EIF2AK3_Y565_D566V]           0.548
45       VGTKWYMAPEV [ACVRL1_Y375_R374W]             2.9
46           PMFTKYGNSLL [RPGRIP1L_Y196]           0.708
47       VNLVLHLSIAK [FBXO15_Y496_Y496H]           0.391
48      IINENYDYLKV [NUP98_Y1664_G1669V]           0.919
49          EPYELYCEMGS [CBL_Y371_Q367P]            3.54
50      GRTNIYNNKKD [SLC26A3_Y520_K521N]           0.301
51               LRFKQYLRNPP [SHC1_Y315]           0.564
52              EEEPVYEAEPE [HCLS1_Y360]            0.72
53          KLQKFYRQNPD [EHHADH_Y683_YF]           0.452
54             ALAAPYVLYPG [CEFIP_Y1332]           0.597
55        GTCGGYCSVLG [RAB18_Y202_A198T]           0.527
56                FRPPYYHRNCM [HGD_Y334]           0.426
57              EKQVAYCPSGK [ROS1_Y2323]           0.412
58          EPNSRYTFKLE [USH2A_Y3745_YF]           0.373
